experiment notes: 13-week repeated oral toxicity: weight measurement
Type: in vivo, beagle
experimental context: 1,000 mg/kg repeated oral (G4), male, week 8, mean
recorded metric: Weight, Mean (kg)

# molecule, obs value
records = [
    ("CN1C(=O)NC(=O)C1O (stereo not shown)", 10.1),
]

====

experiment notes: 13-week repeated oral toxicity: weight measurement
Assay type: in vivo, beagle
experimental context: 200 mg/kg repeated oral (G2), female, week pre, mean
recorded metric: Weight, Mean

# compound, obs value
records = [
    ("CN1C(=O)NC(=O)C1O (stereo not shown)", "9.4 kg"),
]

====

experiment notes: Pharmacokinetic analysis in beagles after oral administration
Assay type: in vivo, beagle
experimental context: beagle, dog, plasma; oral G3 (100 ng/kg [sic]; text 100 mg/kg), mean
recorded metric: half-life

# compound, recorded metric, obs value
rows = [
    ("CN1C(=O)NC(=O)C1O (stereo not shown) [KBP-001]", "half-life", "178 min"),
]

====

experiment notes: 13-week repeated oral toxicity: weight measurement
Type: in vivo, beagle
experimental context: 1,000 mg/kg repeated oral (G4), male, week 11, mean

# molecule, Weight, Mean [kg]
records = [
    ("CN1C(=O)NC(=O)C1O (stereo not shown) [KBP-001]", 10.2),
]

====

experiment notes: 13-week repeated oral toxicity: weight measurement
Assay type: in vivo, beagle
experimental context: 500 mg/kg repeated oral (G3), male, week 0, mean
recorded metric: Weight, Mean (kg)

# compound, obs value
rows = [
    ("CN1C(=O)NC(=O)C1O (stereo not shown)", 9.9),
]

====

Test system: beagles
experiment notes: 13-week repeated oral toxicity: hematological test
Type: in vivo, beagle
experimental context: G3 500 mg/kg, repeated administration for 13 weeks, male, group mean
recorded metric: MCV

# compound, obs value
rows = [
    ("CN1C(=O)NC(=O)C1O (stereo not shown)", "70.4 fL"),
]

====

Tested on: beagles
experiment notes: 13-week repeated oral toxicity: urine test
Type: in vivo, beagle
experimental context: urine; 200 mg/kg; females; repeated administration for 13 weeks; group Mean
recorded metric: Specific gravity

# molecule, obs value
rows = [
    ("CN1C(=O)NC(=O)C1O (stereo not shown)", 1.03),
]

====

experiment notes: 13-week repeated oral toxicity: weight measurement
Type: in vivo, beagle
experimental context: 1,000 mg/kg repeated oral (G4), female, week 4, mean

# compound, readout unit, Weight, Mean
data = [
    ("CN1C(=O)NC(=O)C1O (stereo not shown) [KBP-001]", "kg", 9.6),
]

====

experiment notes: 13-week repeated oral toxicity: weight measurement
Format: in vivo, beagle
experimental context: 500 mg/kg repeated oral (G3), female, week 1, mean

# molecule, readout unit, Weight, Mean
rows = [
    ("CN1C(=O)NC(=O)C1O (stereo not shown) [KBP-001]", "kg", 9.6),
]

====

experiment notes: 13-week repeated oral toxicity: weight measurement
Assay type: in vivo, beagle
experimental context: 200 mg/kg repeated oral (G2), female, week 0, mean

# compound, Weight, Mean / kg
data = [
    ("CN1C(=O)NC(=O)C1O (stereo not shown) [KBP-001]", 9.4),
]

====

experiment notes: 13-week repeated oral toxicity: weight measurement
Format: in vivo, beagle
experimental context: 200 mg/kg repeated oral (G2), female, week 12, mean
Method: During the 13-week test period starting from the day before administration, the weight was measured a total of 15 times before administration (pre), before administration on the day of administration, and every week over the 13-week test period after the first administration at a predetermined time (remaining feed measurement time) before administration of the test substance (on every Tuesday during the test period).

# compound, Weight, Mean
measured = [
    ("CN1C(=O)NC(=O)C1O (stereo not shown)", "9.7 kg"),
]
